Known log10 of TGI of a selection of compounds
Test system: MDA-MB-435
assay name: NCI tumour cell line growth inhibition, 48 h
// do not treat as linear: log10 of TGI, unit µM

Some entries whose results are on file:
compound: CCc1ccccc1NC(=O)C(=O)CC(=O)c1sc(Nc2ccccc2Cl)nc1C
log10 of TGI: 1.82
//
compound: CCN(CC)CC[n+]1cc2cc(OC)c(OC)cc2c2ccc3cc4c(cc3c21)OCO4
log10 of TGI: 0.33
//
compound: Fc1c(F)c(C(F)(F)F)c(F)c(F)c1N/N=C/c1cn(Cc2ccccc2)c2ccccc12
log10 of TGI: 1.74
//
compound: Cc1ccc(NC(=O)c2cc3ccccc3cc2O)c(C)c1.Cc1ccc(NC(=O)c2cc3ccccc3cc2[O-])c(C)c1.[Ni+2]
log10 of TGI: 1.12
//
compound: Oc1cccc2c1[nH]c1c(C3=C[C@@]4(O)CC/C=C\CCCCN5CC[C@@H]3[C@]3(CC6/C=C\CCCCN6[C@H]34)C5)nccc12 (some centres not stated)
log10 of TGI: 0.34

Endpoint output: log10 of TGI of "COC(=O)[C@H](COC(=O)/C=C/c1ccc(OC(C)=O)c(OC(C)=O)c1)NC(=O)/C=C/c1ccc(OC(C)=O)c(OC(C)=O)c1" . Value?
1.66

Also check N#CC1(C#N)C(c2ccccc2)C=CC(c2ccc([N+](=O)[O-])cc2)C1(C#N)C#N (configuration not stated)
1.21

Also check "CC[CH2][Sn]([CH2]CC)([O]C(=O)Cc1ccc(F)cc1)[O][Sn]([CH2]CC)([CH2]CC)[O]C(=O)Cc1ccc(F)cc1"
0.21
